# Tested on: LOX IMVI melanoma
# protocol_description: NCI tumour cell line growth inhibition, 48 h
quantity_measured: TGI

Could you share what TGI was measured for "COc1ccc(C[C@H](N)C(=O)N2C[C@H](CO)C[C@H](n3cnc4c(N(C)C)ncnc43)C2)cc1" , tested on LOX IMVI melanoma?
> 100 µM

Request body: readout TGI, system LOX IMVI melanoma, query Nc1nc2c(c3ncccc13)C(c1ccc(Cl)c(Cl)c1)Cc1ncccc1-2 (stereo not given) . Return the value.
16.2 µM

Tell me reported TGI for CSc1nc(NC2OCC(O)C(O)C2O)c(N)c(=O)n1C (stereo not given) , tested with LOX IMVI melanoma.
> 100 µM

Which TGI is reported with LOX IMVI melanoma for this entry: CC1=C(C(=O)Nc2ccc3[nH]ncc3c2)C(c2ccc(F)cc2)NC(=O)N1 (stereo not given) ?
> 25 µM

Form field: TGI recorded for O=c1[nH]c(=O)n(C2CC(O)C(CO)O2)cc1C(OCC(F)(F)F)OCC(F)(F)F (stereo not given) with LOX IMVI melanoma (enter value)
> 100 µM

Give the reported TGI for "CCNc1c(C(=O)N(CC)CC)c(=O)[nH]c2ncccc12" (system: LOX IMVI melanoma).
> 100 µM

What is its TGI for LOX IMVI melanoma? Entry: "CO/C(=N\N=C\c1ccc(Cl)cc1Cl)c1ccncc1"
> 10 µM

Under LOX IMVI melanoma: TGI value of O=C1OC2(C(F)(F)F)Oc3ccccc3CN2C12CCCCC2 (stereo not given) ?
52.7 µM

Quick check: TGI on LOX IMVI melanoma, item C=C(C)C(=O)OC1CC2(C)OC2CC(OC(C)=O)/C(C)=C/C2OC(=O)C(=C)C21 (stereo not given) ?
7.67 µM

Any idea what TGI came out for "C=C1C(=O)O[C@H]2[C@H]1CC/C(CNC(=O)/C=C/c1cccc(OC)c1)=C\CC[C@@]1(C)O[C@@H]21" on LOX IMVI melanoma?
2.63 µM

Lab note: need TGI for "Cc1cc2c(cc1C)[n+](=O)c(C(=O)/C=C/c1ccc(Cl)cc1)c(C)n2[O-]" on LOX IMVI melanoma, anyone have it?
50.4 µM

Observed TGI on LOX IMVI melanoma for "CCc1ccc(-c2ccc(=O)n(-c3ccc(S(N)(=O)=O)cc3)n2)cc1" , please.
> 100 µM

Please state recorded TGI (tested on LOX IMVI melanoma) of "CCOC(=O)/C(C#N)=C/c1ccc(CO)o1"
> 100 µM

Param readout= TGI; system= LOX IMVI melanoma; entry= "CCOP(=O)(OCC)/C(=C\N1C(=O)CC(=O)NC1=S)C(=O)OC" ; returns value.
> 100 µM

Form: Entry = "CC/C=C\C/C=C\C[C@H](O)C/C=C1/C(=O)C=C[C@H]1C/C=C\CCC(=O)OC" | System = LOX IMVI melanoma | TGI = ____
2.85 µM

Form field - read-out: TGI; system: LOX IMVI melanoma; submitted item: "COc1ccc(/C=C(\C(=C/c2ccc(OC)cc2)[N+](=O)[O-])[N+](=O)[O-])cc1"
5 µM

Lookup: TGI / LOX IMVI melanoma / "C=C(CC(=O)Nc1ccc(C(=O)OC)o1)C(=O)OC"
> 100 µM

Entry "Cc1cc(NS(=O)(=O)c2ccc(NC(=O)c3cccc4c(NNc5ccc(S(=O)(=O)N=C(N)N)cc5)c5ccccc5nc34)cc2)no1" , system LOX IMVI melanoma: what TGI was measured?
> 100 µM

Recall the recorded TGI for "S=c1nc2[nH]c3ccc(Br)cc3c2n[nH]1" with LOX IMVI melanoma and state it.
79.7 µM

TGI of "C=C1C(=O)O[C@H]2C/C(C)=C/CC/C(C)=C/CC[C@@](C)(O)[C@@H](I)C[C@@H]12" on LOX IMVI melanoma?
3.31 µM

Data origin: PubChem BioAssay (NCI)
